// reported glycan array binding signal (z-score) per item
target: Gal(a1-3)GalNAc; assay: glycan array binding signal (z-score within array); higher = stronger binding; details: glycan notation: IUPAC condensed, linker removed
This excerpt belongs to a sample that is enriched for the strongest signals.
Respond with the number and no other words.

Example results:
{"BINDER": "Als3-2 (Candida albicans) (protein) KTITGVFNSFNSLTWSNAATYNYKGPGTPTWNAVLGWSLDGTSASPGDTFTLNMPCVFKFTTSQTSVDLTAHGVKYATCQFQAGEEFMTFSTLTCTVSNTLTPSIKALGTVTLPLAFNVGGTGSSVDLEDSKCFTAGTNTVTFNDGGKKISINVDFERSNVDPKGYLTD", "glycan array binding signal (z-score)": -0.308}
{"BINDER": "F17-L (Escherichia coli) (protein) GPDDYVPSQIAVNTSTLPGVVIGPADAHTYPRVIGELAGTSNQYVFNGGAIALMRGKFTPALPKIGSITYTFHQGNSRDSSDFDIYDIGVSGLGIIIGMAGYWPATPLVPINSSGIYIDPVGANTNPNTYNGATASFGARLFVAFVATGRLPNGYITIPTRQLGTILLEAKRTSLNNKGLTAPVMLNGGRIQVQSQTHHHHHH", "glycan array binding signal (z-score)": -0.118}

Next up:
Data request: Look up glycan array binding signal (z-score): Epa6 (Candida glabrata), Q6DTM7_CANGB (protein) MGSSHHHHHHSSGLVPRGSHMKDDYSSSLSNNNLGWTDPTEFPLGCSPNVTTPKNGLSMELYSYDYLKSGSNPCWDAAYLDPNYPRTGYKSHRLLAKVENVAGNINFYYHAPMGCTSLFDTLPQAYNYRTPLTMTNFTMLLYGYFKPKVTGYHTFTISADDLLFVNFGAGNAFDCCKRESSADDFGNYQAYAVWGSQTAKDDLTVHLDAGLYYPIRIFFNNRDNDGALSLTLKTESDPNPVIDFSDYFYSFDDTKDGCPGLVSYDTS
Data returned: 4.17

From: the supplement of paper PMC8728848
